- System: PC-3
- ASSAY NOTES: Cytotoxicity against human PC3 cells assessed as cell viability by tryptan blue staining method
- Assay type: functional, cell-based
EXPERIMENTAL READOUT: EC50 (nM)

> print(dat)
                                   compound  value.reported
1  CC(O)c1cc2c(o1)C(=O)c1cccc(O)c1C2=O (centres undefined)             560
2  C[C@@H](O)c1cc2c(o1)C(=O)c1cccc(O)c1C2=O             930
3   C[C@H](O)c1cc2c(o1)C(=O)c1cccc(O)c1C2=O             140
4  CO[C@@]12[C@H](COC(N)=O)C3=C(C(=O)C(C)=C(N)C3=O)N1C[C@@H]1N[C@@H]12 [MITOMYCIN]             140
